The reported measurements were obtained from PubChem BioAssay (NCI).

List of TGI values.
Test system: HL-60(TB) leukemia
Assay: NCI tumour cell line growth inhibition, 48 h
Measured Attribute: TGI

>>> reported_value("CN(CCc1ccccn1)c1ccc2c(c1)Cc1ccccc1-2")
"59.3 µM"
>>> reported_value("COc1cc(CO)cc2c1[nH]c1ccccc12")
"> 25 µM"
>>> reported_value("COC(=O)[C@]12CC[C@@H](C)[C@H](C)[C@@H]1C1=CC[C@@H]3[C@@]4(C)C(C=O)=C[C@@](C)(COC(=O)c5ccco5)C4=CC[C@@]3(C)[C@]1(C)CC2")
"5.72 µM"
>>> reported_value("NC(=S)N/N=C(/CCN1CCCC1)CC(C1=C(O)C2=CCCCC2OC1=O)c1ccccc1 (stereo not given)")
"> 100 µM"
>>> reported_value("CCCCCC/C=C\\CCCCCCCCCc1cccc(OC)c1O")
"> 100 µM"
>>> reported_value("CC(C)(C)c1cc(C#N)c2c(c1)C(=O)OC2(c1ccccc1)c1ccccc1C#N (stereo not given)")
"> 100 µM"
>>> reported_value("CC(CCCCNC(=O)OC(C)(C)C)NC(=O)NC(C)CCCCNC(=O)OC(C)(C)C (stereo not given)")
"> 100 µM"
>>> reported_value("CN(CCCN1CCCC1)CCCN(C)C(=O)Cc1ccc(Cl)c(Cl)c1")
"37.1 µM"
>>> reported_value("COc1cc([N+](=O)[O-])cc2c1NC(=O)C2(C)SC (stereo not given)")
"47.2 µM"
>>> reported_value("CCOC1Oc2ccccc2-c2nc(N)ncc21 (stereo not given)")
"62.3 µM"

* * *

List of TGI values.
Tested on: SR leukemia
Assay: NCI tumour cell line growth inhibition, 48 h
Where a SMILES comes first, the peptide text is derived from it. [ ]: non-standard residue; d: D form. The star is where a group is joined. Hyp = O=C(O)[CH]1C[CH](O)CN1; Cbz = O=C(OCc1ccccc1)*
Measured Attribute: TGI

>>> reported_value("NC(=S)NN=C1Cc2ccccc2C1")
"> 100 µM"
>>> reported_value("NC(=O)CNC(=O)C1CC(O)CN1C(=O)C1CCCN1C(=O)OCc1ccccc1 (stereo not drawn) (Cbz-Pro-[Hyp]-Gly-NH2; configuration not given here)")
"> 100 µM"
>>> reported_value("CCOc1ccc2c(c1)[n+]([O-])c(-c1ccc([N+](=O)[O-])cc1)c(N)[n+]2[O-]")
"> 100 µM"
>>> reported_value("CC(C)=CC1(C)/C(=N\\O)C(C)(CC(C)C)C(=O)N1O (stereo unspecified)")
"> 100 µM"
>>> reported_value("CC1(C)OC2C(O1)[C@H]1OC(C(Cl)(Cl)Cl)=N[C@H]1C(I)[C@H]2N1C(=O)c2ccccc2C1=O (stereo partly specified)")
"65.4 µM"
>>> reported_value("O=C1c2ccccc2C(=O)c2c1sc1nc3ccccc3n21")
"> 100 µM"
>>> reported_value("COC(=O)C(Br)(C(=O)OC)C(Br)C(Br)C(Br)c1ccccc1 (stereo unspecified)")
"9.71 µM"
>>> reported_value("Oc1c(O)c(Cc2ccccc2)c(Cc2ccccc2)c(Cc2ccccc2)c1Cc1ccccc1")
"> 10 µM"
>>> reported_value("COc1ccc(/C=N/C2=NNC(C)(c3ccccc3O)N2C(Cc2c[nH]c3ccccc23)C(=O)O)cc1 (stereo unspecified)")
"12.4 µM"
>>> reported_value("Nc1ccc(Cc2ccc(N)c(C(=O)O)c2)cc1C(=O)O")
"> 100 µM"
>>> reported_value("CCC12CN(C(=O)OC)C3C(Br)C1CCC(=O)C32 (stereo unspecified)")
"> 100 µM"
